# study system: T1, HCV Core 134-171-TT Peptide (hepatitis C virus (HCV-1 numbering) …)
# T1 construct: also called ALRZ-9 peptide
# assay details: SPR, captured mAb, peptide analyte
Quick reference: koff of the listed items.

Consider the worked cases shown below.
binder: HCV 208A-222 (antibody, V domains shown) VH: EVQLQQSGPELEKPGASVRISCKTSGYTFTEYAMHWVKQSHGKSLEWIGGINPNNGNAIYNQIFKDKATLTVDRSSSTAYMGLRSLTFGDSGVYFCVRRQLDYFDYWGQGASLTVSS VL: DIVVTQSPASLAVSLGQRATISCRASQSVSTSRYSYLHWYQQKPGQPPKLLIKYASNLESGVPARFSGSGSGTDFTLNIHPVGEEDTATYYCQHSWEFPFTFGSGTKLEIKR
experimental value: 0.00035 s⁻¹
--
binder: HCV 208A-133 (antibody, V domains shown) VH: QLQQSGPVLVGPGASVMISCKTSGYTFTENAMHWVEQSHGKSLEWIGGVNPNNGDTIFNQKFKGKATLTVDKSSSTAFMEFRSLTSEESTVYYCVRRELDFFDYWGQGTSVTVSS VL: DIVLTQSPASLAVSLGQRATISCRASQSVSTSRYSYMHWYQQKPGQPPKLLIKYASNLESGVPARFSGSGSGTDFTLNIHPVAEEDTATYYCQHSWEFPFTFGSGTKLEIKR
experimental value: 0.0005 s⁻¹
--
binder: HCV 208A-1064 (antibody, V domains shown) VH: EVQLQQSGPELVKPGASVKISCKTSGYTFTEYAMHWMKQSHGKSLEWIGGINPTNGDTIYNQKFKDKAKLTVDRSSSTAYMELRSLTSDDSALFYCARRELDYFASWGQGTTLTVSS VL: DIVLTQSPASLIVSLGQTATISCRASQSVSTSRFSYLHWIQQKPGQPPKLLIKYASNLESGVPVRFSGSGSGTDFTLNIHPVEEEDTATYFCQHSWEFPFTFGSGTKLKIKR
experimental value: 0.00034 s⁻¹

Supply koff value. Item: HCV 208B-174 (antibody, V domains shown) VH: EVKLEESGGGLVQPGGSMKLSCVASGFSFSSYWMSWVRQSPEKGLDWVAEIRLRSDNYATHYAESVKGRFTISRDDSISRLYLQMNTLRAEDTGIYYCTWMTYWGQGTLVTVSA VL: QNVLTQSPAIMSASPGEKVTMSCSASSSVTYMFWYQLKPESSPRLLIYDTSNLASGVPVRFSGSGSGTSYSLTISRMEAEDAATYYCQEWSSYPLTFGAGTKLDLKR
0.00018 s⁻¹

Respond only with koff recorded for HCV 208B-1096 (antibody, V domains shown) VH: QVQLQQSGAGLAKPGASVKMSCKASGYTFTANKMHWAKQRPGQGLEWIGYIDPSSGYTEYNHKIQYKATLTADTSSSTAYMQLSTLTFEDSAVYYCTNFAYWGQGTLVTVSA VL: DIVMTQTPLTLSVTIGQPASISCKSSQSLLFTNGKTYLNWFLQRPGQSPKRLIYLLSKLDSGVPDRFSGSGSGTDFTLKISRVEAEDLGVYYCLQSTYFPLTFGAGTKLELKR
0.0006 s⁻¹
